# Read-out: xenobiotic metabolism (CYP1A1), CYP1A1 (gene 1543)
# assay_details: CLD_CYP1A1_6hr: CellzDirect (CLD) Gene Expression Assay for xenobiotic metabolism (CYP1A1) at 6 hours (AID 2283661)
Records with an inconclusive call do not appear. Active and inactive are the calls of the source. The calls were made as follows: active = hit-call score of the fitted dose curve at least 0.9, where 1 is the maximum; inconclusive = response in the unintended direction; inactive = score below 0.9.
Classes used: active, inactive

{"columns": ["record_smiles", "group_label"],
 "data": [
  ["CCOP(=S)(OCC)Oc1ccc2c(C)c(Cl)c(=O)oc2c1", "inactive"],
  ["O=C(O)c1cc(Oc2ccc(C(F)(F)F)cc2Cl)ccc1[N+](=O)[O-]", "inactive"],
  ["CCCSP(=O)(OCC)SCCC", "active"]
]}

###

# Read-out: HGF (gene 3082)
# assay_details: LTEA_HepaRG_HGF: Life Technologies and Expression Analysis (LTEA) Assay for Hepatocyte Growth Facto (HGF) using HepaRG (AID 2283505)
# experimental_context: mRNA level, 48 h; actives raise or lower the signal
# Method: LTEA_HepaRG is a cell based, multiplexed-readout assay that uses HepaRG, a human liver cell line, with measurements taken at 48 hours after chemical dosing on a 96-well plate.LTEA_HepaRG_HGF is one of 102 assay component(s) measured in the LTEA HepaRG cell culture assay. It is a marker of Cell proliferation, survival, death.Data from the assay component LTEA_HepaRG_HGF was analyzed into 1 endpoint. […]
Active and inactive are the calls of the source. The calls were made as follows: active = hit-call score of the fitted dose curve at least 0.9, where 1 is the maximum; inactive = score below 0.9.
Classes used: active, inactive

{"columns": ["compound", "group_label"],
 "data": [
  ["CCOC(=O)CC(SP(=O)(OC)OC)C(=O)OCC (stereo not drawn)", "inactive"],
  ["CCCCN(CC)c1c([N+](=O)[O-])cc(C(F)(F)F)cc1[N+](=O)[O-]", "inactive"],
  ["C[N+]1(C)CCCCC1", "inactive"],
  ["CC[C@H](C)[C@H]1O[C@]2(C=C[C@@H]1C)C[C@@H]1C[C@@H](C/C=C(\\C)[C@@H](O[C@H]3C[C@H](OC)[C@@H](O[C@H]4C[C@H](OC)[C@@H](NC)[C@H](C)O4)[C@H](C)O3)[C@@H](C)/C=C/C=C3\\CO[C@@H]4[C@H](O)C(C)=C[C@@H](C(=O)O1)[C@]34O)O2", "inactive"],
  ["CN1COCN(Cc2cnc(Cl)s2)C1=N[N+](=O)[O-]", "inactive"],
  ["FC(F)C(F)(F)OCC(Cn1cncn1)c1ccc(Cl)cc1Cl (stereo not drawn)", "active"],
  ["O=[N+]([O-])c1cc(C(F)(F)F)c(Cl)c([N+](=O)[O-])c1Nc1ncc(C(F)(F)F)cc1Cl", "inactive"],
  ["S=C1NCCN1", "inactive"],
  ["CCOP(=S)(OCC)Oc1ccc([N+](=O)[O-])cc1", "inactive"],
  ["O=C(O)c1cc(Oc2ccc(C(F)(F)F)cc2Cl)ccc1[N+](=O)[O-]", "inactive"],
  ["Nc1c(Cl)cc([N+](=O)[O-])cc1Cl", "inactive"],
  ["CCC(=O)Nc1ccc(Cl)c(Cl)c1", "inactive"],
  ["CCCSP(=O)(OCC)SCCC", "inactive"]
]}

###

# Read-out: Early growth response protein 1 (EGR1) transcription factor, EGR1 (gene 1958)
# assay_details: LTEA_HepaRG_EGR1: Life Technologies and Expression Analysis (LTEA) Assay for Early growth response protein 1 (EGR1) transcription factor using HepaRG (AID 2283490)
# experimental_context: mRNA level, 48 h; actives raise or lower the signal
Calls of active or inactive are those of the source. Rule for the calls: active = hit-call score of the fitted dose curve at least 0.9, where 1 is the maximum; inactive = score below 0.9.
Classes used: active, inactive

{"columns": ["molecule", "group_label"],
 "data": [
  ["CN1COCN(Cc2cnc(Cl)s2)C1=N[N+](=O)[O-]", "inactive"],
  ["CN(C)NC(=O)CCC(=O)O", "inactive"],
  ["CCC(=NOC/C=C/Cl)C1=C(O)CC(C2CCOCC2)CC1=O (stereo unspecified)", "inactive"],
  ["CCCCSP(=O)(SCCCC)SCCCC", "inactive"],
  ["CC(Oc1cccc(Cl)c1)C(=O)O (stereo unspecified)", "inactive"],
  ["CCOC(=O)COc1cc(-c2nn(C)c(OC(F)F)c2Cl)c(F)cc1Cl", "inactive"],
  ["CCC(CC)Nc1c([N+](=O)[O-])cc(C)c(C)c1[N+](=O)[O-]", "inactive"],
  ["CSc1nc(NC(C)C)nc(NC(C)C)n1", "inactive"],
  ["CCOP(=O)(SC(C)CC)N1CCSC1=O (stereo unspecified)", "inactive"],
  ["CCCCOC(=O)[C@@H](C)Oc1ccc(Oc2ccc(C#N)cc2F)cc1", "inactive"],
  ["CCOP(=O)(OCC)Oc1cc(C)nc(C(C)C)n1", "inactive"],
  ["CCNc1nc(Cl)nc(NC(C)(C)C#N)n1", "inactive"],
  ["CSc1nnc(C(C)(C)C)c(=O)n1N", "inactive"],
  ["CC(COc1ccc(Oc2ccccc2)cc1)Oc1ccccn1 (stereo unspecified)", "inactive"],
  ["CCc1cnc(C2=NC(C)(C(C)C)C(=O)N2)c(C(=O)O)c1 (stereo unspecified)", "inactive"],
  ["CCOP(=S)(OCC)Oc1ccc([N+](=O)[O-])cc1", "inactive"],
  ["FC(F)C(F)(F)OCC(Cn1cncn1)c1ccc(Cl)cc1Cl (stereo unspecified)", "active"],
  ["CN(C)[C@@H]1C(=O)C(C(N)=O)=C(O)[C@@]2(O)C(=O)C3=C(O)c4c(O)cccc4[C@@](C)(O)[C@H]3[C@H](O)[C@@H]12", "inactive"],
  ["CCc1cccc(CC)c1N(COC)C(=O)CCl", "inactive"],
  ["C#CC(C)(C)NC(=O)c1cc(Cl)cc(Cl)c1", "inactive"],
  ["Nc1c(Cl)cc([N+](=O)[O-])cc1Cl", "active"],
  ["CCCCN(CC)c1c([N+](=O)[O-])cc(C(F)(F)F)cc1[N+](=O)[O-]", "inactive"],
  ["CCCSP(=O)(OCC)Oc1ccc(Br)cc1Cl (stereo unspecified)", "inactive"],
  ["C[N+]1(C)CCCCC1", "inactive"],
  ["O=c1ccc(=O)[nH][nH]1", "inactive"],
  ["COc1cccc(C(=O)NN(C(=O)c2cc(C)cc(C)c2)C(C)(C)C)c1C", "inactive"],
  ["O=C(O)c1cc(Oc2ccc(C(F)(F)F)cc2Cl)ccc1[N+](=O)[O-]", "inactive"],
  ["CCCCOC(=O)c1ccccc1C(=O)O", "inactive"],
  ["CN(C)C(=O)Nc1cccc(C(F)(F)F)c1", "inactive"],
  ["O=[N+]([O-])c1cc(C(F)(F)F)c(Cl)c([N+](=O)[O-])c1Nc1ncc(C(F)(F)F)cc1Cl", "active"],
  ["N#CSCSC#N", "inactive"],
  ["CC1=NNC(=O)N(/N=C/c2cccnc2)C1", "inactive"],
  ["COP(=O)(OC)C(O)C(Cl)(Cl)Cl (stereo unspecified)", "inactive"],
  ["Cc1cc(C2CC2)nc(Nc2ccccc2)n1", "inactive"],
  ["COP(=O)(OC)OC(Br)C(Cl)(Cl)Br (stereo unspecified)", "inactive"],
  ["CCOP(=S)(OCC)Oc1cc(C)nc(C(C)C)n1", "inactive"]
]}

###

# Read-out: sulfotransferase (SULT2A), SULT2A1 (gene 6822)
# assay_details: CLD_SULT2A_48hr: CellzDirect (CLD) Gene Expression Assay for sulfotransferase (SULT2A) at 48 hours (AID 2283710);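 also: hits raise SULT2A1 transcript above the 0.2% DMSO vehicle baseline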
Records with an inconclusive call do not appear. Active and inactive are the calls of the source. Rule for the calls: active = hit-call score of the fitted dose curve at least 0.9, where 1 is the maximum; inconclusive = response in the unintended direction; inactive = score below 0.9.
Classes used: True = active, False = inactive

{"columns": ["compound", "group_label"],
 "data": [
  ["C#CCC1=C(C)C(OC(=O)C2C(C=C(C)C)C2(C)C)CC1=O (stereo not drawn)", "False"],
  ["CC[C@H](C)[C@H]1O[C@]2(C=C[C@@H]1C)C[C@@H]1C[C@@H](C/C=C(\\C)[C@@H](O[C@H]3C[C@H](OC)[C@@H](O[C@H]4C[C@H](OC)[C@@H](NC)[C@H](C)O4)[C@H](C)O3)[C@@H](C)/C=C/C=C3\\CO[C@@H]4[C@H](O)C(C)=C[C@@H](C(=O)O1)[C@]34O)O2", "True"],
  ["CCOP(=S)(OCC)Oc1ccc2c(C)c(Cl)c(=O)oc2c1", "False"],
  ["CCOC(=O)CC(SP(=O)(OC)OC)C(=O)OCC (stereo not drawn)", "False"],
  ["CNc1cnn(-c2cccc(C(F)(F)F)c2)c(=O)c1Cl", "False"],
  ["Cc1cc(C2CC2)nc(Nc2ccccc2)n1", "False"],
  ["CC(C)=CC1C(C(=O)OCN2C(=O)C3=C(CCCC3)C2=O)C1(C)C (stereo not drawn)", "False"],
  ["CCc1cnc(C2=NC(C)(C(C)C)C(=O)N2)c(C(=O)O)c1 (stereo not drawn)", "False"],
  ["CON=C(C(=O)OC)c1ccccc1CON=C(C)c1cccc(C(F)(F)F)c1", "False"],
  ["CNC(=O)ON=C(C)SC", "False"],
  ["CCCCOC(=O)[C@@H](C)Oc1ccc(Oc2ccc(C#N)cc2F)cc1", "False"],
  ["CCOC(=O)COc1cc(-c2nn(C)c(OC(F)F)c2Cl)c(F)cc1Cl", "False"],
  ["COP(=O)(OC)SCn1c(=O)oc2cc(Cl)cnc21", "False"],
  ["CC(COc1ccc(Oc2ccccc2)cc1)Oc1ccccn1 (stereo not drawn)", "False"],
  ["CCNc1nc(Cl)nc(NC(C)(C)C#N)n1", "False"],
  ["CC(C)N(C(=O)SCC(Cl)=C(Cl)Cl)C(C)C", "False"],
  ["C=C(C)[C@H]1Cc2c(ccc3c2O[C@@H]2COc4cc(OC)c(OC)cc4[C@@H]2C3=O)O1", "False"],
  ["N#CSCSC#N", "False"],
  ["Cc1ccn2nc(S(=O)(=O)Nc3c(F)cccc3F)nc2n1", "False"],
  ["O=C(O)c1cc(Oc2ccc(C(F)(F)F)cc2Cl)ccc1[N+](=O)[O-]", "False"],
  ["COP(=O)(OC)OC(Br)C(Cl)(Cl)Br (stereo not drawn)", "False"],
  ["Nc1c(Cl)cc([N+](=O)[O-])cc1Cl", "False"],
  ["COc1cccc(C(=O)NN(C(=O)c2cc(C)cc(C)c2)C(C)(C)C)c1C", "False"]
]}
